meta.source: ChEMBL document CHEMBL5528008

Measured pIC50 (Poly [ADP-ribose] polymerase 1 (Homo sapiens, UniProt P09874))
pIC50: −log10 of the molar value.
Readout Label: pIC50

INSERT INTO results (smiles_notation, prefix_operator, assay_result) VALUES
  ('CC(C)C[C@H](NC(=O)[C@@H](NC(=O)c1cc(Cc2n[nH]c(=O)c3ccccc23)ccc1F)C(C)C)B1O[C@@H]2C[C@@H]3C[C@@H](C3(C)C)[C@]2(C)O1', '=', 6.82),
  ('Cc1c(Cc2ccc(F)c(C(=O)NCC(=O)N[C@@H](CC(C)C)B3O[C@@H]4C[C@@H]5C[C@@H](C5(C)C)[C@]4(C)O3)c2)n[nH]c(=O)c1C', '=', 6.76),
  ('COC[C@H](NC(=O)c1cc(Cc2n[nH]c(=O)c3ccccc23)ccc1F)C(=O)N[C@@H](CC(C)C)B1O[C@@H]2C[C@@H]3C[C@@H](C3(C)C)[C@]2(C)O1', '=', 6.61),
  ('CC(C)C[C@H](NC(=O)[C@H](CC(C)C)NC(=O)c1cc(Cc2n[nH]c(=O)c3ccccc23)ccc1F)B1O[C@@H]2C[C@@H]3C[C@@H](C3(C)C)[C@]2(C)O1', '=', 6.86),
  ('CSCC[C@H](NC(=O)c1cc(Cc2n[nH]c(=O)c3ccccc23)ccc1F)C(=O)N[C@@H](CC(C)C)B1O[C@@H]2C[C@@H]3C[C@@H](C3(C)C)[C@]2(C)O1', '=', 6.99),
  ('CC(C)C[C@H](NC(=O)CNC(=O)c1cc(Cc2ccc(=O)[nH]n2)ccc1F)B1O[C@@H]2C[C@@H]3C[C@@H](C3(C)C)[C@]2(C)O1', '<', 6.00),
  ('CC(C)C[C@H](NC(=O)[C@H](Cc1c[nH]c2ccccc12)NC(=O)c1cc(Cc2n[nH]c(=O)c3ccccc23)ccc1F)B(O)O', '=', 7.01),
  ('COC[C@H](NC(=O)c1cc(Cc2n[nH]c(=O)c(C)c2C)ccc1F)C(=O)N[C@@H](CC(C)C)B1O[C@@H]2C[C@@H]3C[C@@H](C3(C)C)[C@]2(C)O1', '<', 6.00),
  ('CC(C)C[C@H](NC(=O)[C@@H](NC(=O)c1cc(Cc2n[nH]c(=O)c3ccccc23)ccc1F)C(C)(C)C)B1O[C@@H]2C[C@@H]3C[C@@H](C3(C)C)[C@]2(C)O1', '=', 6.77);
